Experiment: Cytotoxicity against mouse STC-1 cells assessed as reduction in cell viability after 24 hrs by MTT assay
Format: toxicity, cell-based
test.readout: IC50 at 24 h (µg/mL)
Report the value in µg/mL with no unit label.

// recorded IC50 at 24 h for COc1cc(O)c(CC=C(C)C)c(O)c1C(=O)/C=C/c1ccc(O)cc1 [XANTHOHUMOL] : 8

----------
Assay: Cytotoxicity against mouse STC-1 cells assessed as cell viability at 10 ug/ml after 24 hrs by MTT assay relative to control
Type: toxicity, cell-based
Conditions: at 10 µg/mL, read-out: Activity
test.readout: viability at 24 h, 10 ug/ml (%)
The reply should be a number in %, with the unit left off.

Short answer for "COc1cc(O)c(CC=C(C)C)c(O)c1C(=O)/C=C/c1ccc(O)cc1" : viability at 24 h, 10 ug/ml was 35
